Known normalized growth of a selection of compounds
EXPERIMENT NOTES: chemical genetic growth profiling, strain panel (AID 1159580);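 further: tested at 20 µM; growth read once vehicle control cultures reached saturation at 30 °C; 1 = growth at the plate median or of vehicle wells; lower values mean less growth of the strain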
CONDITION SET: S. cerevisiae deletion strains, growth OD, locus YCL029C, strain bik1, active compounds read low
In all, about 5,500 compounds went through this assay and about 2,000 (36%) were called active. Another 18% or so got no clear call; they are omitted. The list shows a part of the results.

COMPOUND	normalized growth
COc1cc(C)c2c(=O)c3c(O)cc(O)cc3oc2c1	0.95 (inactive)
Cc1cc(N)c2ccccc2[n+]1CCCCCCCCCC[n+]1c(C)cc(N)c2ccccc21	0.0664 (active)
CO[C@H]1[C@H](O)[C@@H](O[C@H]2CC[C@]3(C=O)C4CC[C@]5(C)[C@@H](C6=CC(=O)OC6)CC[C@]5(O)C4CC[C@@H]3C2)O[C@@H](C)[C@@H]1O (some centres undefined)	0.993 (inactive)
NC[C@H]1O[C@H](OC2[C@@H](N)C[C@@H](N)[C@H](O[C@H]3O[C@H](CO)[C@@H](O)[C@H](N)[C@H]3O)[C@H]2O)[C@H](O)[C@@H](O)[C@@H]1O (some centres undefined)	0.985 (inactive)
C/C=C(/C)C(=O)O[C@@H]1Cc2c(ccc3ccc(=O)oc23)OC1(C)C	1.01 (inactive)
O=C(CCCN1CCC(O)(c2ccc(Cl)cc2)CC1)c1ccc(F)cc1	0.945 (inactive)
C/C=C(\C)C(=O)O[C@@H]1c2c(ccc3ccc(=O)oc23)OC(C)(C)[C@@H]1OC(C)=O	1.03 (inactive)
C[C@@H]1CC[C@@]23CCC4(C)[C@@](C=CC5[C@@]6(C)CC[C@H](O)C(C)(C)C6CC[C@]54C)(OC2=O)C3[C@H]1C (some centres undefined)	1.02 (inactive)
CC1(C)C(=O)CC[C@@]2(C)C1C[C@@H](O)[C@@]1(C)C3=CC(=O)O[C@@H](c4ccoc4)[C@]3(C)CCC21 (some centres undefined)	0.999 (inactive)
CC12CCC3C(CCC4(O)CC(O)CCC34/C=N/NC(N)=O)C1(O)CCC2C1=CC(=O)OC1 (centres undefined)	0.999 (inactive)
Cc1ccc(C(C)C)c(O)c1C(=O)O	0.951 (inactive)
C[C@]12CC[C@H](O)C[C@H]1CCC1C2CC[C@]2(C)[C@@H](C3=CC(=O)OC3)[C@@H](O)C[C@]12O (some centres undefined)	1.01 (inactive)
C[C@@H](CO)NC(=O)C1C=C2c3cccc4[nH]cc(c34)C[C@H]2N(C)C1 (some centres undefined)	0.986 (inactive)
CC(=O)OC1CC[C@@]2(C)C(CCC3C2CC[C@]2(C)C(C4=CC(=O)OC4)C(OC(C)=O)CC32O)C1 (some centres undefined)	1.01 (inactive)
C[C@@H]1CC[C@@]23CCC4(C)[C@@](C=CC5[C@@]6(C)CCC(=O)C(C)(C)C6CC[C@]54C)(OC2=O)C3[C@H]1C (some centres undefined)	1.03 (inactive)
COc1cc(C)c2c(=O)c3c(O)cc(OC)cc3oc2c1	0.991 (inactive)
CCOC(=O)CC(SP(=S)(OC)OC)C(=O)OCC (centres undefined)	1.01 (inactive)
COC(=O)C(N)CS (centres undefined)	0.964 (inactive)
N#Cc1c(Cl)cccc1Cl	1.01 (inactive)

These entries and their values trace back to PubChem BioAssay AID1159580.
